Recorded MIC99 NTB1 by entry
# Test system: M. tuberculosis NTB1 (DprE1 C387S mutant)
# Assay type: cell-based, Mycobacterium tuberculosis
measurement-name: MIC99 NTB1 (µg/mL)

>  <compound>
O=c1nc(N2CCN(S(=O)(=O)C3CC3)CC2)sc2c([N+](=O)[O-])cc(C(F)(F)F)cc12

>  <measurement-name>
MIC99 NTB1

>  <unit-info>
µg/mL

>  <bound-type>
=

>  <numeric-readout>
14.7

$$$$
>  <compound>
O=c1nc(N2CCN(CC3CCCCC3)CC2)sc2c([N+](=O)[O-])cc(C(F)(F)F)cc12 [PBTZ169, macozinone, reference compound]

>  <measurement-name>
MIC99 NTB1

>  <unit-info>
µg/mL

>  <bound-type>
>

>  <numeric-readout>
100

$$$$
>  <compound>
O=c1nc(N2CCN(S(=O)(=O)c3cccc4cnccc34)CC2)sc2c([N+](=O)[O-])cc(C(F)(F)F)cc12

>  <measurement-name>
MIC99 NTB1

>  <unit-info>
µg/mL

>  <bound-type>
>

>  <numeric-readout>
100

$$$$
>  <compound>
CCS(=O)(=O)N1CCN(c2nc(=O)c3cc(C(F)(F)F)cc([N+](=O)[O-])c3s2)CC1

>  <measurement-name>
MIC99 NTB1

>  <unit-info>
µg/mL

>  <bound-type>
=

>  <numeric-readout>
25.1

$$$$
>  <compound>
CO[C@H]1/C=C/O[C@@]2(C)Oc3c(C)c(O)c4c(O)c(c(/C=N/N5CCN(C)CC5)c(O)c4c3C2=O)NC(=O)/C(C)=C\C=C\[C@H](C)[C@H](O)[C@@H](C)[C@@H](O)[C@@H](C)[C@H](OC(C)=O)[C@@H]1C [Rifampin, reference compound]

>  <measurement-name>
MIC99 NTB1

>  <unit-info>
µg/mL

>  <bound-type>
=

>  <numeric-readout>
0.0008

$$$$
>  <compound>
CCCCS(=O)(=O)N1CCN(c2nc(=O)c3cc(C(F)(F)F)cc([N+](=O)[O-])c3s2)CC1

>  <measurement-name>
MIC99 NTB1

>  <unit-info>
µg/mL

>  <bound-type>
>

>  <numeric-readout>
100

$$$$
>  <compound>
O=c1nc(N2CCN(S(=O)(=O)C3CCCCC3)CC2)sc2c([N+](=O)[O-])cc(C(F)(F)F)cc12

>  <measurement-name>
MIC99 NTB1

>  <unit-info>
µg/mL

>  <bound-type>
>

>  <numeric-readout>
100

$$$$
>  <compound>
O=c1nc(N2CCN(S(=O)(=O)c3cccs3)CC2)sc2c([N+](=O)[O-])cc(C(F)(F)F)cc12

>  <measurement-name>
MIC99 NTB1

>  <unit-info>
µg/mL

>  <bound-type>
>

>  <numeric-readout>
100

$$$$
>  <compound>
CS(=O)(=O)N1CCN(c2nc(=O)c3cc(C(F)(F)F)cc([N+](=O)[O-])c3s2)CC1

>  <measurement-name>
MIC99 NTB1

>  <unit-info>
µg/mL

>  <bound-type>
=

>  <numeric-readout>
75

$$$$

// provenance: paper PMC6153800
